Reported Gram Absorption Coefficient at λmax values for the following compounds.
Test: wavelength (λmax) at absorption spectrum peak and gram absorption coefficient at λmax
Format: physicochemical
Could you respond with only the numeric value?

Known results for compounds:
COc1ccc(/C=C/C(=O)N2CCOCC2)cc1 | 79
CCO[Si](C)(CCCN)OCC [Comparative Compound 6, reference compound] | 143
COc1ccc(/C=C(\C)C(=O)N2CCCCC2)c([N+](=O)[O-])c1 | 92

Input: I would be grateful if you could share the reported Gram Absorption Coefficient at λmax for CCN(CC)C(=O)/C(C)=C/c1ccc(OC)cc1[N+](=O)[O-] .
Output: 107

Input: // next record CCN(CC)C(=O)C=Cc1ccc(OC)cc1O [compound 7, reference compound]
Output: 72

Input: Subsequent entry: COc1ccc(/C=C/C(=O)N2CCCCC2)cc1[N+](=O)[O-]
Output: 94

Input: Next entry: CCN(CC)C(=O)/C(C)=C/c1ccc(OC)c([N+](=O)[O-])c1
Output: 127

Input: Next compound: COc1ccc(C=C(C)C(=O)n2ccnc2)cc1
Output: 84

Input: What about COc1ccc(/C=C(\C)C(=O)n2ccnc2)cc1[N+](=O)[O-] ?
Output: 98

Input: And the next one, CCN(CC)C(=O)/C=C/c1ccc(OC)cc1 ?
Output: 90

Input: Try the compound COc1ccc(/C=C/C(=O)n2ccnc2)cc1[N+](=O)[O-]
Output: 86
